study_target: T1, biotinylated GITR (human, UniProt Q9Y5U5 26-161, limits assumed, biotinylated (sites not given))
T1 construct: also called GITR-bio; Biotin-GITR
T1 sequence: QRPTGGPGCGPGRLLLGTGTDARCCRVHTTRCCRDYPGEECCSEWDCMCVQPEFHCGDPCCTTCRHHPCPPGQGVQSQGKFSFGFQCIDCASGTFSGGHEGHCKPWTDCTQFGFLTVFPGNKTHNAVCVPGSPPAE
experiment: BLI (Octet), biotin-GITR on streptavidin tips, antibody supernatant
Property: kon; scope: individual binders
result_type: kon (M⁻¹ s⁻¹)

binder	unit_annotation	data_value
germline variant antibody 46 (H1916E06 / K1916E06) (antibody, V domains shown, IGHG1/IGKC expression vectors; measured from CHO culture supernatant; also called Antibody ID 46) VH: QVQLVQSGAEVKKPGASVKVSCKASGYTFTEYAMYWVRQAPGQGLEWMGLIRTFSGDLSYNQKFRGRVTMTVDTSISTAYMELSRLRSDDTAVYYCAKSGTVRGFAYWGQGTLVTVSS VL: DIVMTQSPDSLAVSLGERATINCKSSQSLLNSGNQKNYLSWYHQKPGQPPKLLIYWASTRESGVPDRFTGSGSGTDFTLTISSLQAEDVAVYHCQNDYSYPYTFGQGTKLEIK	M⁻¹ s⁻¹	400000
germline variant antibody 29 (H1916C11 / K1916C11) (antibody, V domains shown, IGHG1/IGKC expression vectors; measured from CHO culture supernatant; also called Antibody ID 29) VH: QVQLVQSGAEVKKPGASVKVSCKGSGYTFTDYAMYWVRQAPGQGLEWIGVIRTFSGGVTYNQKFKGRATMTVDTSISTAYMELSRLRSDDTAVYYCAKSGTVRGFAYWGQGTLVTVSS VL: DIVMTQSPDSLAVSLGERATINCKSSQSLLNSSNQKNYLSWYQQKPGQPPKLLIYWASTRESGVPDRFSGSGSGTDFTLTISSLQAEDVAVYHCQNDYSYPYTFGQGTKLEIK	M⁻¹ s⁻¹	295000
germline variant antibody 68 (H1917B01 / K1917B01) (antibody, V domains shown, IGHG1/IGKC expression vectors; measured from CHO culture supernatant; also called Antibody ID 68) VH: QVQLVQSGTEVKKPGASVKVSCKGSGYTFTGYAMYWVRQAPGQGLEWIGLIRTYSGGVTYNQKFRGRVTMTVDTSISTAYMELSRLRSDDTAVYYCAKSGTVRGFAYWGQGTLVTVSS VL: DIVMTQSPDSLAVSLGERATINCKSSQSLLNSGNQKNYLTWYQQKPGQPPKMLIYWASTRESGVPDRFTGSGSGTDFTLTISSLQAEDVAVYYCQNDYSYPYTFGQGTKLEIK	M⁻¹ s⁻¹	289000
germline variant antibody 1 (H1916A01 / K1916A01) (antibody, V domains shown, IGHG1/IGKC expression vectors; measured from CHO culture supernatant; also called Antibody ID 1) VH: QVQLVQSGTEVKKPGASVKVSCKGSGYTFTEYAMYWVRQAPGQGLEWIGVIRTYSGGVTYNQKFQGRATMTVDTSISTAYMELSRLRSDDTAVYYCAKSGTVRGFAYWGQGTLVTVSS VL: DIVMTQSPDSLAVSLGERATINCKSSQSLLNSGNQKNYLTWYHQKPGQPPKMLIYWASTRESGVPDRFSGSGSGTDFTLTISSVQAEDVAVYHCQNDYSYPYTFGQGTKLEIK	M⁻¹ s⁻¹	468000
germline variant antibody 33 (H1916D03 / K1916D03) (antibody, V domains shown, IGHG1/IGKC expression vectors; measured from CHO culture supernatant; also called Antibody ID 33) VH: QVQLVQSGAEVKKPGASVKVSCKASGYTFTGYAMYWVRQAPGQGMEWIGLIRTYSGGVTYNQKFQGRVTMTVDTSISTAYMELSRLRSDDTAVYYCAKSGTVRGFAYWGQGTLVTVSS VL: DIVMTQSPDSLAVSLGERATINCKSSQSLLNSGNQKNYLSWYHQKPGQPPKLLIYWASTRESGVPDRFSGSGSGTDFTLTISSVQAEDVAVYHCQNEYSYPYTFGQGTKLEIK	M⁻¹ s⁻¹	1.12e+07

Data origin: patent US20210070872A1
